Below is a list of entries, each paired with its recorded EC50 value.
- tested-target: human CYP11B1 (Homo sapiens)
- assay-details: G-402 cellular enzyme assay, human CYP11B1 (cortisol release, HTRF)
- condition-info: G-402 cells, 1 μM Deoxycortisol
- From the text: Herein we identified the use of the G-402 cell line as a host cell to ectopically express (transiently or stably) enzymes of the CYP11 family. […] Importantly the identified cell line G-402 expresses co-factors (adrenodoxin and adrenodoxin reductase) important for the activity of the CYP11 family and no relevant enzyme activity of the CYP11 family (in comparison to H295R cells) was detected in these cells. […]
Returns: string containing the number followed by the unit.

Use these answered entries as a reference point.
{"columns": ["compound", "EC50"],
 "data": [
  ["COC(c1cncc(N2CCc3cc(Cl)ccc3C2=O)c1)C(F)(F)F (stereo not drawn)", "0.198 µM"],
  ["CC(C)OCc1ccncc1N1CCc2cc(Cl)ccc2C1=O", "12.8 µM"]
]}

Next up:
Summary: COC[C@@H]1CCCN1c1cncc(N2CCc3cc(Cl)ccc3C2=O)c1 , human CYP11B1 (Homo sapiens), EC50 = 0.188 µM

---

- tested-target: UniProt:P19099
- assay-details: G-402 cellular enzyme assay, human CYP11B2 (aldosterone release, HTRF)
- condition-info: G-402 cells, 1 μM Deoxycorticosterone
- Description: Herein we identified the use of the G-402 cell line as a host cell to ectopically express (transiently or stably) enzymes of the CYP11 family. […] Importantly the identified cell line G-402 expresses co-factors (adrenodoxin and adrenodoxin reductase) important for the activity of the CYP11 family and no relevant enzyme activity of the CYP11 family (in comparison to H295R cells) was detected in these cells. […]
reported-property: EC50 (nM)
Report as a plain number; the unit nM is understood.

Use these answered entries as a reference point.
{"columns": ["compound", "EC50 / nM"],
 "data": [
  ["NC1(c2cncc(N3CCc4cc(Cl)ccc4C3=O)c2)CC1", 1280],
  ["CCS(=O)(=O)NCc1cncc(N2C(=O)c3ccc(F)cc3C23CC3)c1", 265],
  ["CC(=O)NCc1cncc(N2C(=O)c3ccc(Cl)cc3C2(C)C)c1", 58.9],
  ["CC(O)(c1cc(F)cc(F)c1)c1cncc(N2CCc3cc(Cl)ccc3C2=O)c1 (stereo not shown)", 9.2],
  ["CCC(=O)NC1CCCc2c1cncc2N1CCc2cc(Cl)ccc2C1=O (stereo not shown) [Example 29]", 318]
]}

Next up:
According to the records, this compound COc1cncc(N2CCc3nc(OC)ccc3C2=O)c1 displays EC50 of 16.9

---

Below is a list of entries, each paired with its recorded log10 of EC50 value.
- tested-target: human CYP11B1 (Homo sapiens)
- Construct: expressed in transfected cells
- assay-details: G-402 cellular enzyme assay, human CYP11B1 (cortisol release, HTRF)
- Type: cell-based
- condition-info: G-402 cells, 1 μM Deoxycortisol
Hey, these are logged values: log10 of EC50, nM being the unit before logging.

Use these answered entries as a reference point.
{"columns": ["compound", "measured-number"],
 "data": [
  ["CC(=O)NC1CCc2c1cncc2N1CCc2cc(Cl)ccc2C1=O (single isomer, unassigned) [Example 333]", 3.72],
  ["O=C1c2ccc(Cl)cc2CCN1c1cncc2cccc([N+](=O)[O-])c12 [Example 286]", 3.48],
  ["CCS(=O)(=O)NC1CCCc2c1cncc2N1Cc2cc(Cl)ccc2C1=O (single isomer, unassigned; (+)) [Example 316]", 3.26],
  ["CC(=O)N1CCC(Oc2cncc(N3C(=O)c4ccc(Cl)cc4C3(C)C)c2)C1 (stereo not drawn) [Example 441]", 2.99],
  ["O=C1c2ccc(Cl)cc2C(C2CC2)N1c1cncc(OC(F)F)c1 (stereo not drawn) [Example 302]", 3.72]
]}

According to the records, this compound CC(=O)N1CCC(c2cncc(N3C(=O)c4ccc(Cl)cc4C3(C)C)c2)CC1 [Example 461] displays log10 of EC50 of 2.56

According to the records, this compound O=C1c2ccc(Cl)cc2CCN1c1cccnc1 [Example 1] displays log10 of EC50 of 3.66

According to the records, this compound CC(OCc1cncc(N2CCc3cc(Cl)ccc3C2=O)c1)C(F)(F)F (stereo not drawn) [Example 195] displays log10 of EC50 of 2.69

According to the records, this compound O=C1c2ccc(Cl)cc2CCN1c1cncc(C(O)c2ccccc2)c1 (stereo not drawn) [Example 34] displays log10 of EC50 of 2.46

---

- tested-target: human CYP11B1 (Homo sapiens)
- assay-details: G-402 cellular enzyme assay, human CYP11B1 (cortisol release, HTRF)
- condition-info: G-402 cells, 1 μM Deoxycortisol
Below is a list of entries, each paired with its recorded pEC50 value.
// returns pEC50 (minus log10 of molar concentration), number only

According to the records, this compound O=C1c2ccc(Cl)cc2CCN1c1cncc(CN2CC[C@H](O)C2)c1 displays pEC50 of 6.86

According to the records, this compound O=C1c2ccc(Cl)cc2CCN1c1cnccc1C(O)c1ccc(F)cc1 (stereo not drawn) displays pEC50 of 5.35

According to the records, this compound O=C1c2ccc(Cl)cc2CCN1c1cncc(CNc2ccc(Cl)cc2)c1 displays pEC50 of 6.46

---

- tested-target: human CYP11B1 (Homo sapiens)
- Sequence (P15538 25-503): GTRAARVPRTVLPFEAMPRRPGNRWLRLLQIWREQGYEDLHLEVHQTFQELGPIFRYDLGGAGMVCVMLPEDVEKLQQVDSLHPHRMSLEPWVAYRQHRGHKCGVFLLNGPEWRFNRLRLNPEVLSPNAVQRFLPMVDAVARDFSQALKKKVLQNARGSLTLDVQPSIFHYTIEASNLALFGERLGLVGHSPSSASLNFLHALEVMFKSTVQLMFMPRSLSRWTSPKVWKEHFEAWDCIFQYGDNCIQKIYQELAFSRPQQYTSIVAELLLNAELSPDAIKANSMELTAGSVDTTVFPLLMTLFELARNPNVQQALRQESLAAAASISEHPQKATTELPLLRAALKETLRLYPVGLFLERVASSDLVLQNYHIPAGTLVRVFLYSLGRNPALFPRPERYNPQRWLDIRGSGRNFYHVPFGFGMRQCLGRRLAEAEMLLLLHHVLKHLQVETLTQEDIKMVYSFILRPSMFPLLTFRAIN
- assay-details: G-402 cellular enzyme assay, human CYP11B1 (cortisol release, HTRF)
- condition-info: G-402 cells, 1 μM Deoxycortisol
pEC50: −log10 of the molar value.
Would you mind sorting the entries by pEC50 according to these classes? low group = under 6, middle group = from 6 up to 7, high group = 7 and over

Consider the worked cases shown below.
{"columns": ["molecule", "cat"],
 "data": [
  ["O=C1c2ccc(Cl)cc2CCN1c1cncc(CNc2ccc(F)cc2)c1", "high group"],
  ["Cc1cncc(N2CCc3cc(Cl)ccc3C2=O)n1", "low group"],
  ["CC1(C)c2cc(Cl)ccc2C(=O)N1c1cncc(CNC(=O)c2ccccn2)c1", "middle group"],
  ["CCC1c2cc(Cl)ccc2C(=O)N1c1cncc(OC(F)F)c1 (centres unmarked)", "middle group"],
  ["O=C1c2ccc(Cl)cc2CCN1c1cncc(CNc2cc[nH]n2)c1", "middle group"]
]}

Quick check: band for COC(C)c1c(F)cncc1N1CCc2cc(Cl)ccc2C1=O (centres unmarked)
low group

Quick check: band for CS(=O)(=O)c1ccc(Cc2cncc(N3CCc4cc(Cl)ccc4C3=O)c2)cc1
high group

Quick check: band for CC(c1cncc(N2CCc3cc(Cl)ccc3C2=O)c1)N(C)C (centres unmarked)
middle group

Quick check: band for CC(=O)NC1CCCc2c1cncc2N1Cc2cc(Cl)ccc2C1=O (single isomer, unassigned) [Example 323]
low group

Quick check: band for CC(c1cncc(N2CCc3cc(Cl)ccc3C2=O)c1)n1cncn1 (centres unmarked)
middle group

Quick check: band for CCC(=O)N[C@@H]1CCCc2c1cncc2N1C(=O)c2cc(Cl)ccc2[C@H]1CC (single isomer, unassigned)
low group

Quick check: band for O=C1c2ccc(Cl)cc2CCN1c1cncc(CN2CC[C@@H](O)C2)c1
middle group

---

Below is a list of entries, each paired with its recorded EC50 value.
- tested-target: human CYP11B2 (Homo sapiens, UniProt P19099)
- Sequence (P19099 25-503): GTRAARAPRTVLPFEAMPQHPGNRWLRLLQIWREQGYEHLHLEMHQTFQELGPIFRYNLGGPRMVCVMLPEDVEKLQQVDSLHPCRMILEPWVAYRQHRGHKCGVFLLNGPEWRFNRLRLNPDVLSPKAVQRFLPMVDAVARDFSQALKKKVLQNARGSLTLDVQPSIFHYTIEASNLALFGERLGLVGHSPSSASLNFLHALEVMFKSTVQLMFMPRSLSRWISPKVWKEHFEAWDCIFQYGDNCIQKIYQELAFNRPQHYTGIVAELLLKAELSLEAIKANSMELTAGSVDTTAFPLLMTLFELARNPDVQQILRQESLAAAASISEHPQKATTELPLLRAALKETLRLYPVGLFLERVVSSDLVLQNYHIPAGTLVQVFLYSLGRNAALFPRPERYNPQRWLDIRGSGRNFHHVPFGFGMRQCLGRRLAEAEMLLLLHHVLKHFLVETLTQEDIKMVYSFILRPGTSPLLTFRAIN
- assay-details: G-402 cellular enzyme assay, human CYP11B2 (aldosterone release, HTRF)
- condition-info: G-402 cells, 1 μM Deoxycorticosterone
Report as a plain number; the unit nM is understood.

Use these answered entries as a reference point.
{"columns": ["compound", "measured-number"],
 "data": [
  ["O=C1c2ccc(Cl)cc2C(C2CC2)N1c1cccnc1 (stereo not drawn) [Example 301]", 161],
  ["Cc1nc2ccccc2n1Cc1cncc(N2CCc3cc(Cl)ccc3C2=O)c1 [Example 181]", 217],
  ["O=C1OCCN1Cc1cncc(N2CCc3cc(Cl)ccc3C2=O)c1 [Example 157]", 352]
]}

According to the records, this compound COC(=O)[C@@H]1CCCN1Cc1cncc(N2CCc3cc(Cl)ccc3C2=O)c1 [Example 84] displays EC50 of 225

According to the records, this compound Cc1noc(C)c1Cc1cncc(N2CCc3cc(Cl)ccc3C2=O)c1 [Example 204] displays EC50 of 40.8

According to the records, this compound CC(=O)NC1CCCc2c1cncc2N1CCc2cc(Cl)ccc2C1=O (single isomer, unassigned) [Example 320] displays EC50 of 8030
